TARGET_OF_ASSAY: S-layer protein EA1 (Bacillus anthracis Sterne, UniProt P94217)
EXPERIMENT_SUMMARY: SPR; […] (5 µg/ml in 10 mM sodium acetate pH 4.0); […], dissociation 10 min; […]
RUN_CONDITIONS: both partners purified
PARAMETER_MEASURED: log10(kon) (log10 of the value in M⁻¹ s⁻¹)
Give log10 of kon, with kon taken in M⁻¹ s⁻¹.

In the examples that follow, each entry is paired with its recorded log10(kon).
sdAb B12 (VHH, source: E. coli Rosetta, periplasmic (pECAN45), purified (IMAC, Superdex 75)) VHH: DVQLQASGGGLAQPGGSLRLSCVASGSVSRLSRMGWYRQAPGKQRELVAYIWHDGDNSYMDSVKGRFTISRDNARDTAYLQMNSLKPEDTAVYYCNYYRVGSGDSWGQGIQVIVSS | 5.38
sdAb A1 (VHH, source: E. coli Rosetta, periplasmic (pECAN45), purified (IMAC, Superdex 75)) VHH: DVQLQASGGGLVQAGGSLELSCVVVGESIIDYQMAWFRQMVGREREFVAAITGDSHYSDYSASASGRFTISRDNAKKTVSLQMNHLKPEDTALYYCAARKGFGINRLSTAFDYWGHGTQVTVSS | 5.88

Task: // log10(kon) lookup, key: sdAb C7 (VHH, source: E. coli Rosetta, periplasmic (pECAN45), purified (IMAC, Superdex 75)) VHH: EVQLQASGGGLVQPGGSLNLSCAASGEILSFNSMGWYRQAPGKQCELVAVILSGFSPNYADSVKGRFTISRDGAKNTVFLRMNRLKPEDTADYYCAARFYGAIRDEQSVNYWGQGTRVTVSS
Result: 5.20

Task: Can you look up the measured log10(kon) of sdAb G10 (VHH, source: E. coli Rosetta, periplasmic (pECAN45), purified (IMAC, Superdex 75)) VHH: DVQLQASGGGLVQPGGSLKLSCVASGSTFSPDMMRWYRQAPGKQRDLVAWISTSGFTMYADSVKGRFTISRDNAKNTVYLQMNSLKPEDAAVYYCNANRFSGPDYWGQGMQVSVSS for me?
Result: 4.91

Task: Give its log10(kon) value. Item: sdAb B2 (VHH, source: E. coli Rosetta, periplasmic (pECAN45), purified (IMAC, Superdex 75)) VHH: EVQLQASGGGLVQAGGSLRLSCAASGHINIHYAMGWFRRAPGKEREFVAAVTWSGASTYYADSVKGRFTISRDNGGNTMFLQLDSLKPEDTATYYCAAQGALGRLTSASGYDYWGQGTQVTVSS
Result: 4.78
